Biological target: Caspase-1 (Homo sapiens, UniProt P29466)
Sequence (P29466 120-297 limits assumed): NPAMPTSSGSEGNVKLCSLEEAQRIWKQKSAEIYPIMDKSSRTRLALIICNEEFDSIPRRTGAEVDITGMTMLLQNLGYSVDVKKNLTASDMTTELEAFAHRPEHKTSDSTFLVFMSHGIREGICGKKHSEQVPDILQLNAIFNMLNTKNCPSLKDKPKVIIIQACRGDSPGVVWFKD
Sequence (P29466 317-404 limits assumed): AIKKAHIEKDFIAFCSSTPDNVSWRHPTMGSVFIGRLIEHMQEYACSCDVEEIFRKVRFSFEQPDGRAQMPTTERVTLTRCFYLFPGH
Overview of reported log10 of IC50 across a group of molecules:
Values reflect log10 of reported IC50 (µM).

Record excerpt, results attached:
NC(=O)c1cc(-c2ccccc2)nnc1Cl = 1.76
NC(=O)c1cc(-c2ccc(NS(=O)(=O)c3ccccc3)cc2)nnc1Cl = 1.26
O=C(NCc1ccccc1)c1cc(-c2ccncc2)nnc1Cl = 0.60

Report log10 of IC50 on Caspase-1 (Homo sapiens, UniProt P29466) for this entry: CCOC(=O)CNC(=O)c1cc(-c2ccncc2)nnc1Cl
0.30

Report log10 of IC50 on Caspase-1 (Homo sapiens, UniProt P29466) for this entry: CNC(=O)c1cc(-c2ccncc2)nnc1Cl
1.00

Report log10 of IC50 on Caspase-1 (Homo sapiens, UniProt P29466) for this entry: NC(=O)c1cc(-c2ccncc2)nnc1Cl
0.48

Report log10 of IC50 on Caspase-1 (Homo sapiens, UniProt P29466) for this entry: N#Cc1cc(-c2ccncc2)nnc1Cl
2.04

Report log10 of IC50 on Caspase-1 (Homo sapiens, UniProt P29466) for this entry: NC(=O)c1cc(-c2ccc(Br)cc2)nnc1Cl
0.70

====

Target: Caspase-1 (Homo sapiens) (UniProt P29466)
Sequence (P29466 120-297 limits assumed): as the sequence (P29466 120-297 limits assumed) above
Sequence (P29466 317-404 limits assumed): as the sequence (P29466 317-404 limits assumed) above
Assay: Inactivation of IL-1 beta converting enzyme
Overview of reported log10 of k obs / 1 across a group of compounds:
Values reflect log10 of reported k obs / 1 (M⁻¹ s⁻¹).

O=C(NCc1ccccc1)c1cc(-c2ccncc2)nnc1Cl = 1.70

Consider the compound CS(=O)(=O)c1c(F)cc(-c2cc(C(N)=O)c(Cl)nn2)cc1F . State its measured log10 of k obs / 1.
2.55

Consider the compound O=C(NCc1ccc(Cl)cc1Cl)c1cc(-c2ccncc2)nnc1Cl . State its measured log10 of k obs / 1.
2.15

Consider the compound CCOC(=O)c1cc(-c2ccncc2)nnc1Cl . State its measured log10 of k obs / 1.
1.00

Consider the compound CNC(=O)c1cc(-c2ccncc2)nnc1Cl . State its measured log10 of k obs / 1.
1.40

Consider the compound NC(=O)c1cc(-c2ccc(C(F)(F)F)cc2)nnc1Cl . State its measured log10 of k obs / 1.
1.60

====

These compounds were tested on Caspase-1 (Homo sapiens, UniProt P29466); pIC50 is the recorded read-out.
Reminder that pIC50 means the negative base-10 logarithm of the concentration expressed in mol/L.

Record excerpt, results attached:
O=C(NCc1ccc(Cl)cc1Cl)c1cc(-c2ccncc2)nnc1Cl = 5.70
NC(=O)c1cc(-c2ccc(F)c(Cl)c2)nnc1Cl = 5.26

Next item in the queue.
Report pIC50 on Caspase-1 (Homo sapiens, UniProt P29466) for this entry: N#Cc1ccc(-c2cc(C(N)=O)c(Cl)nn2)cc1Cl
6.30

====

Biological target: Caspase-1 (Homo sapiens) (UniProt P29466)
Assay: Inactivation of IL-1 beta converting enzyme
recorded_endpoint: k obs / 1 (M⁻¹ s⁻¹)
Report only the number, with the unit M⁻¹ s⁻¹ understood.

NC(=O)c1cc(-c2ccc(F)c(Cl)c2)nnc1Cl = 45

Consider the molecule N#Cc1ccc(-c2cc(C(N)=O)c(Cl)nn2)cc1Cl . State its measured k obs / 1.
225

Consider the molecule NC(=O)c1cc(-c2ccncc2)nnc1Cl . State its measured k obs / 1.
70
